This section presents compounds with their documented IC50 values.
Molecular target: ATM (Homo sapiens (Human))
Sequence (Q13315 whole entry): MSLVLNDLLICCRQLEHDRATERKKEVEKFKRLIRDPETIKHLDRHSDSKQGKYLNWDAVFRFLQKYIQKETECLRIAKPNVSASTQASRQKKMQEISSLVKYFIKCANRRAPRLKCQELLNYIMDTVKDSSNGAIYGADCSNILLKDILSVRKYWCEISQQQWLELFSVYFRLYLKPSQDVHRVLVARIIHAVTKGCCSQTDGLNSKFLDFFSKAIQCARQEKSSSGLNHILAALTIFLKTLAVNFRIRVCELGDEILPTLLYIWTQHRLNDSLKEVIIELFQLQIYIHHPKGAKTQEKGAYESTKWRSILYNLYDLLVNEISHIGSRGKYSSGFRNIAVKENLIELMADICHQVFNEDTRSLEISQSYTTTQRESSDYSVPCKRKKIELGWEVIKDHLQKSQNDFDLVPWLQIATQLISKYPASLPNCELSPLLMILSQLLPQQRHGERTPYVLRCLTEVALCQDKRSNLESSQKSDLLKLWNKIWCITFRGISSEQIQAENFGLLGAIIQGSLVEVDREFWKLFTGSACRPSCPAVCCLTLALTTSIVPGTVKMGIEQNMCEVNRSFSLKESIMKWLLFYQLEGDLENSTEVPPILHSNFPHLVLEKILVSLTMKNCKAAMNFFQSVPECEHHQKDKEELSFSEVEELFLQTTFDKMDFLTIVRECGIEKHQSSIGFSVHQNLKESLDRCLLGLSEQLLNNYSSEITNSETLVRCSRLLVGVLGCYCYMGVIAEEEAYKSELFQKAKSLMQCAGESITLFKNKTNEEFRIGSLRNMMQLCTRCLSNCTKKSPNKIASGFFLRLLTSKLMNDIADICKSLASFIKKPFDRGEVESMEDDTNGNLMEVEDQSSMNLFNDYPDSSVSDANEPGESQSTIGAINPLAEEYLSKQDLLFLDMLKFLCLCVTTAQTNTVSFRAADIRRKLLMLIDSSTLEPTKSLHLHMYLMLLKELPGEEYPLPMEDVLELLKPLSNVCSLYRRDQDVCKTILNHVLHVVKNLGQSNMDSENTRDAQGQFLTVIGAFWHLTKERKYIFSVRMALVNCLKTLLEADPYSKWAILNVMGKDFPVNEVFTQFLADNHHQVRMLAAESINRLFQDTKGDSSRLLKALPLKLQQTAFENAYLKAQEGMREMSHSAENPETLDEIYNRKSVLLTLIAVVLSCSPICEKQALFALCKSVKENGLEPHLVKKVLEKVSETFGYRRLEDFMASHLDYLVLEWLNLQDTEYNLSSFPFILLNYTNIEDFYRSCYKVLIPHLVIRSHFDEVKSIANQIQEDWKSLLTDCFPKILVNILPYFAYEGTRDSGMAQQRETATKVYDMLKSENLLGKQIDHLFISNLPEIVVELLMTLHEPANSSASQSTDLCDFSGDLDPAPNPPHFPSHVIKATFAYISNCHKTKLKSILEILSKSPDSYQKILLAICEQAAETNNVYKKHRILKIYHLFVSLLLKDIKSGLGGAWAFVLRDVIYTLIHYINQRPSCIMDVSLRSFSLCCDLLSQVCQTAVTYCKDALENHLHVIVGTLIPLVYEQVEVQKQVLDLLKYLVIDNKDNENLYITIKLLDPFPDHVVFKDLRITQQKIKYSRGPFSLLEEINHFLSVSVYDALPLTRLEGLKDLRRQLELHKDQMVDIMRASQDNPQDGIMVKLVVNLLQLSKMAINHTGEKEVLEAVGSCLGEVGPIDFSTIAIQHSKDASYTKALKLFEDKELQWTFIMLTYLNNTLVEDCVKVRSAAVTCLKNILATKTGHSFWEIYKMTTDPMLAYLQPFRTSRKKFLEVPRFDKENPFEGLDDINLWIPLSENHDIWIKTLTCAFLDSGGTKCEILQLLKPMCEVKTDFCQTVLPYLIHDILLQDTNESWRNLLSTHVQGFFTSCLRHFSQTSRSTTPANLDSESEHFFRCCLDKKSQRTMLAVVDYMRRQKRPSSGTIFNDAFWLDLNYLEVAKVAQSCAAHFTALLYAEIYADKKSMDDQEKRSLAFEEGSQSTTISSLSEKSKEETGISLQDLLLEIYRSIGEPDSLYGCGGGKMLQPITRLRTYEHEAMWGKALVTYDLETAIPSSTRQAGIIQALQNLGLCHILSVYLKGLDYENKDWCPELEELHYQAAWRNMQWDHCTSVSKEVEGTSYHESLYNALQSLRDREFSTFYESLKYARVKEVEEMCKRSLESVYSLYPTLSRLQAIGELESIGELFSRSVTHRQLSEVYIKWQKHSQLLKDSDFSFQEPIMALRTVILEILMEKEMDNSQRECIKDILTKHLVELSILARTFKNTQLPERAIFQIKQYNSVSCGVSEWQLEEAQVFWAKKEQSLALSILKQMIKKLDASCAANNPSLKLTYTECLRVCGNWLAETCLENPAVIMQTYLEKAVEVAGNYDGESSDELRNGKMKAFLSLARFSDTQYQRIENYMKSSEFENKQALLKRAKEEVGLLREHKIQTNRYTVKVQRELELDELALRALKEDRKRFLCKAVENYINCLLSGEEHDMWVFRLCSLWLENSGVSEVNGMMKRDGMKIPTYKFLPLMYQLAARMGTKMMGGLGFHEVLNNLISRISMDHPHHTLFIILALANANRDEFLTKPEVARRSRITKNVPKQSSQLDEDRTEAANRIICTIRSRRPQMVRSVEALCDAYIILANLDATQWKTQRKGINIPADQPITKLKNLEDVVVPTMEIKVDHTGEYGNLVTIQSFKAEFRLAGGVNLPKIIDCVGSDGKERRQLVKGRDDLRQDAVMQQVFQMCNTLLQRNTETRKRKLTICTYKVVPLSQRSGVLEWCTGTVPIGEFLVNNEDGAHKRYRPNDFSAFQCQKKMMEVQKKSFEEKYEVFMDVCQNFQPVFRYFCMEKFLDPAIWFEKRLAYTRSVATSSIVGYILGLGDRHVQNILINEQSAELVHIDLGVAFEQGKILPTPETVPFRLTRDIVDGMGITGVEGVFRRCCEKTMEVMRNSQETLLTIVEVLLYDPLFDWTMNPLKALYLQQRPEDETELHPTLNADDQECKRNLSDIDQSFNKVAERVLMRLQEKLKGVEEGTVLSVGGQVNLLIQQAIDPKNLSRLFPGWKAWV
Assay: ATM in Cell Western Assay (pKAP1 in etoposide-treated MCF-7 cells)
Format: cell-based
Settings: pKAP1 in etoposide-treated MCF-7 cells
Where a name gives a salt, the structure may show the parent alone.

Solved cases (5 shown):
compound=CC(C)NCCOc1ncc(-c2cc3c4c(cnc3cc2F)N(C)C(=O)C42CN(c3ccc(C(C)(C)C)cc3)C2)cc1NS(C)(=O)=O valuekind=IC50 assayvalue="1 to 100 nM"
compound=CN(C)CCCOc1ncc(-c2ccc3ncc4c(c3c2)C2(CN(C)C2)C(=O)N4C)cc1NS(C)(=O)=O valuekind=IC50 assayvalue="1 to 100 nM"
compound=CCN1CC2(C1)C(=O)N(C)c1cnc3cc(F)c(-c4cnc(OCCNC(C)C)c(NS(C)(=O)=O)c4)cc3c12 valuekind=IC50 assayvalue="1 to 100 nM"
compound=CN1C(=O)C2(CN(CC(F)(F)F)C2)c2c1cnc1ccc(-c3cnc(N4CC(N(C)C)C4)c(NS(C)(=O)=O)c3)cc21 valuekind=IC50 assayvalue="1 to 100 nM"
compound=CC(C)NCCOc1ncc(-c2cc3c(cc2F)ncc2c3[C@]3(C[C@H](N4CCCC4)C3)C(=O)N2C)cc1NS(C)(=O)=O valuekind=IC50 assayvalue="1 to 100 nM"

Would you kindly look at the next entry?
Given the compound CNC[C@H]1C[C@@]2(C1)C(=O)N(C)c1cnc3cc(F)c(-c4cnc(OCCNC(C)C)c(NS(C)(=O)=O)c4)cc3c12 [Example 455, hydrochloride] , what is its reported IC50?
> 100 nM

* * *

This section presents compounds with their documented pIC50 values.
Molecular target: DNA-PK (Homo sapiens (Human), UniProt P78527)
Assay: DNA-PK Enzyme-Linked Immunosorbent Assay (phosphorylation of GST-p53 (1-101) peptide)
Type: biochemical
Details: ELISA, 20 μM ATP
pIC50: −log10 of the molar value. Structures can show the parent of a compound that is named as a salt.

compound="CCS(=O)(=O)Nc1cc(-c2cc3c4c(cnc3cc2F)N(C)C(=O)C42CCC2)cnc1N1CC(N(C)C)C1 [Example 343, formate]" assayvalue="7.00 to 9.00"
compound=CC(C)NCCOc1ncc(-c2cc3c(cc2F)ncc2c3[C@]3(C[C@@H](c4cccc(Cl)c4)C3)C(=O)N2C)cc1NS(C)(=O)=O assayvalue="7.00 to 9.00"
compound="CN1C(=O)C2(CCC2)c2c1cnc1ccc(-c3cnc(N4CCC(N5CCOCC5)CC4)c(NS(=O)(=O)C4CC4)c3)cc21 [Example 356, hydrochloride]" assayvalue="9.00 to 9.30"
compound=CC(C)NCCOc1ncc(-c2cc3c(cc2F)ncc2c3[C@]3(C[C@@H](c4cccc(F)c4)C3)C(=O)N2C)cc1NS(C)(=O)=O assayvalue="7.00 to 9.00"
compound=CC(C)NCCOc1ncc(-c2cc3c4c(cnc3cc2F)N(C)C(=O)C42CCC2)cc1NS(=O)(=O)C(C)(C)C assayvalue="9.00 to 9.30"

Would you kindly look at the next entry?
Given the compound `CCO[C@H]1C[C@]2(C1)C(=O)N(C)c1cnc3cc(F)c(-c4cnc(OCCNC(C)C)c(NS(C)(=O)=O)c4)cc3c12` , what is its reported pIC50?
7.00 to 9.00

* * *

Biological target: DNA-PK (Homo sapiens (Human), UniProt P78527)
Test: DNA-PK Enzyme-Linked Immunosorbent Assay (phosphorylation of GST-p53 (1-101) peptide)
Assay type: biochemical
Details: ELISA, ATP 20 μM
Counter-ions that a name gives are not always drawn.
This section presents compounds with their documented IC50 values.

Solved cases (3 shown):
compound=CCS(=O)(=O)Nc1cc(-c2ccc3ncc4c(c3c2)C2(CCC2)C(=O)N4C)cnc1OCCCN(C)C valuekind=IC50 assayvalue="1 to 100 nM"
compound=CN(C)CCCOc1ncc(-c2ccc3ncc4c(c3c2)C2(CCC2)C(=O)N4C)cc1NS(=O)(=O)N1CCCC1 valuekind=IC50 assayvalue="1 to 100 nM"
compound=CCN(CC)S(=O)(=O)Nc1cc(-c2ccc3ncc4c(c3c2)C2(CCC2)C(=O)N4C)cnc1OCCCN(C)C valuekind=IC50 assayvalue="1 to 100 nM"

Given the compound CN1C(=O)C2(CCC2)c2c1cnc1cc(F)c(-c3cnc(N4CC(N(C)C)C4)c(NS(C)(=O)=O)c3)cc21 [Example 317, hydrochloride] , what is its reported IC50?
1 to 100 nM

Given the compound CN1C(=O)C2(CCC2)c2c1cnc1cc(F)c(-c3cnc(N4CC(N(C)C)C4)c(NS(=O)(=O)N(C)C)c3)cc21 [Example 316, hydrochloride] , what is its reported IC50?
1 to 100 nM

Given the compound `CN1C(=O)C2(CCC2)c2c1cnc1ccc(-c3cnc(N4CCC(N(C)C)CC4)c(NS(=O)(=O)C4CC4)c3)cc21` , what is its reported IC50?
< 0.5 nM

Given the compound `CN(C)CCCOc1ncc(-c2cc3c4c(cnc3cc2F)N(C)C(=O)C42CC2)cc1NS(=O)(=O)c1ccccc1` , what is its reported IC50?
1 to 100 nM
